B1: Serine/threonine-protein kinase A-Raf, residues 21 to 89; numbered along this chain, P10398 (parent)
chain: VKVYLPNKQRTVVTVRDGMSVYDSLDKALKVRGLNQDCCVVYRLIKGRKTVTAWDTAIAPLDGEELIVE

# Variants of: B1
# assay name: abundance fitness (aPCA) (normalised: wild type 0, dead -1); higher = more abundant; growth selection in yeast, the domain comes from the species named
# study conditions: Homo sapiens
observable: abundance fitness
Please give only the number in your answer, with no unit.

Input line: Quick one: give measured abundance fitness for I45M
Output line: -0.508

Input line: Quick one: give measured abundance fitness for V51T
Output line: -0.324

Input line: Quick one: give measured abundance fitness for N7C
Output line: -0.521

Input line: Quick one: give measured abundance fitness for L34A
Output line: -1.02

Input line: Quick one: give measured abundance fitness for C39E
Output line: -1.16

Input line: Quick one: give measured abundance fitness for L61P
Output line: -0.631

Input line: Quick one: give measured abundance fitness for A53S
Output line: -0.058

Input line: Quick one: give measured abundance fitness for G18E
Output line: -0.25

Input line: Quick one: give measured abundance fitness for D55Q
Output line: -0.024

Input line: Quick one: give measured abundance fitness for K2Q
Output line: -0.32

Input line: Quick one: give measured abundance fitness for K49G
Output line: -0.863

Input line: Quick one: give measured abundance fitness for L34M
Output line: -0.135

Input line: Quick one: give measured abundance fitness for S24D
Output line: -0.887

Input line: Quick one: give measured abundance fitness for K8T
Output line: -0.286

Input line: Quick one: give measured abundance fitness for G33E
Output line: -0.26

Recorded values, source the Human Domainome abundance scans (Beltran et al. 2025).
